Target: UniProtKB P02743
Sequence (P02743 20-223): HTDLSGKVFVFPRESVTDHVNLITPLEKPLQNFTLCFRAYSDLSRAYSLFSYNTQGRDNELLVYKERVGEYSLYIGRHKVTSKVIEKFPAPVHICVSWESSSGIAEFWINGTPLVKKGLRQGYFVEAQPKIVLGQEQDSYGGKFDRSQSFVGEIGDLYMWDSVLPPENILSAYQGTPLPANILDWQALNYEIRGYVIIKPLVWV
Assay: Inhibition of binding of 125I radiolabelled SAP to native long chromatin immobilized in microtitre plates
Parameters: 5 μl of radiolabelled SAP in TN; from tissue
Settings: compound 200 nM; read-out: Percent inhibition of binding of radiolabelled SAP to immobilized native long chromatin
readout_name: inhibition at 0.2 µM (%)
Reply with just the number (in %).

Reference set, count: 7
inhibition at 0.2 µM reading for O=C(O)[C@H]1CCCN1C(=O)Cc1cc(O)c(CC(=O)N2CCC[C@@H]2C(=O)O)cc1O : 0

inhibition at 0.2 µM reading for O=C(O)[C@H]1CCCN1C(=O)COc1ccc(OCC(=O)N2CCC[C@@H]2C(=O)O)cc1 : 1

inhibition at 0.2 µM reading for O=C(O)[C@H]1CCCN1C(=O)CCCCC(=O)N1CCC[C@@H]1C(=O)O : 1

inhibition at 0.2 µM reading for C[N+](C)(C)CCOP(=O)([O-])O [Phosphocholine, reference compound] : 2

inhibition at 0.2 µM reading for O=C(O)[C@H]1CCCN1C(=O)[C@H]1CC[C@@H](C(=O)N2CCC[C@@H]2C(=O)O)CC1 : 1

inhibition at 0.2 µM reading for C[C@H](CSSC[C@@H](C)C(=O)N1CCC[C@@H]1C(=O)O)C(=O)N1CCC[C@@H]1C(=O)O : 3

inhibition at 0.2 µM reading for COc1cccc(OCC(=O)N2CCC[C@@H]2C(=O)O)c1OCC(=O)N1CCC[C@@H]1C(=O)O : 11

Next:
inhibition at 0.2 µM reading for O=C(O)[C@H]1CCCN1C(=O)COc1cccc2c(OCC(=O)N3CCC[C@@H]3C(=O)O)cccc12 : 12
